Cited source: patent US20230364070A1

SYSTEM: Ba/F3 cells with EGFR exon 20 ASV Ins V769_D770 (Homo sapiens, UniProt P00533, INS769ASV)
Sequence (P00533 with tags, fused parts or gaps INS769ASV): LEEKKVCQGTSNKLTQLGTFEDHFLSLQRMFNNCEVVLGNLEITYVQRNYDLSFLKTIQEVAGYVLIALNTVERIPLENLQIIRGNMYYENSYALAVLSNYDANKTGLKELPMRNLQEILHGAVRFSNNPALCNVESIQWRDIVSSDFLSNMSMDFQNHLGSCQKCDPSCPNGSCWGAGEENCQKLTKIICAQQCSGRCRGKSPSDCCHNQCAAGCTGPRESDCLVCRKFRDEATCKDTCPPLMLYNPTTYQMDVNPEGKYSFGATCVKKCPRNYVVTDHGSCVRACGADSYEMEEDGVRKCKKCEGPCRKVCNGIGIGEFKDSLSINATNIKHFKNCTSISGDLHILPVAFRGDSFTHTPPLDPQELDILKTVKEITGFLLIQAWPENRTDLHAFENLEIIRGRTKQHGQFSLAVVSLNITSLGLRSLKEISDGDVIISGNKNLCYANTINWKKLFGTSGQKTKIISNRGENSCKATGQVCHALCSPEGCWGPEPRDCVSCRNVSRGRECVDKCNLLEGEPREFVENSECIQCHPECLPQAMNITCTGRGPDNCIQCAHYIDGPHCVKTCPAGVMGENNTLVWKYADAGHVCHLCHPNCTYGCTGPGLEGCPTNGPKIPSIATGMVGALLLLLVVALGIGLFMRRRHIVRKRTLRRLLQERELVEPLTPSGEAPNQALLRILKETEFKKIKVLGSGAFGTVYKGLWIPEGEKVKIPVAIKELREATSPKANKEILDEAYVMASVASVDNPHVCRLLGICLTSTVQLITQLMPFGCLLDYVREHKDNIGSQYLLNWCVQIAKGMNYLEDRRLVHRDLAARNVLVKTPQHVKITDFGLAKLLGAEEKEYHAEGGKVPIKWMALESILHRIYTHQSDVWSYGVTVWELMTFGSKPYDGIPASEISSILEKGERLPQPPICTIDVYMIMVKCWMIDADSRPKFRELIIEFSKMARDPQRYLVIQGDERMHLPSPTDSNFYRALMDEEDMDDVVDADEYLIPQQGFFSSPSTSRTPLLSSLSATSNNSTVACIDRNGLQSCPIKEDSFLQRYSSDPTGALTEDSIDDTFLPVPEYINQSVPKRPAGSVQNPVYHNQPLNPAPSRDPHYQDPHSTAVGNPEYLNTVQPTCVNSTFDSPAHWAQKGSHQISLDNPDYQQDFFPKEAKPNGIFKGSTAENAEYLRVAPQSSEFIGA
ASSAY METHOD TEXT: EGFR activity: Ba/F3 cell viability (CellTiter-Glo, 72 h), EGFR exon 20 ASV insertion
EXPERIMENTAL SETUP: EGFR exon 20 ASV Ins V769_D770, cell viability, read-out: BaF3 ASV IC50
ASSAY READOUT: IC50

| COMPOUND | SYSTEM | IC50 |
| --- | --- | --- |
| C=CC(=O)N1CCOC[C@]1(C)C#Cc1cnccc1-c1[nH]c2c(c1Nc1cccc(Cl)c1OC)C(=O)NCC2 [compound 461] | Ba/F3 cells with EGFR exon 20 ASV Ins V769_D770 (Homo sapiens, UniProt P00533, INS769ASV) | < 100 nM |
| COc1c(Cl)cccc1Nc1c(-c2ccncc2C#C[C@@]2(C)CCCN2C(=O)/C=C/CNC2COC2)[nH]c2c1C(=O)NCC2 [compound 595] | Ba/F3 cells with EGFR exon 20 ASV Ins V769_D770 (Homo sapiens, UniProt P00533, INS769ASV) | 100 to 1000 nM |

*Q* IC50 for COc1cccnc1COc1cnccc1-c1[nH]c2c(c1Nc1cccc(F)c1OC)C(=O)NCC2 [Compound 476] ?
*A* < 100 nM

*Q* Look up IC50 for this compound: COc1c(F)cccc1Nc1c(-c2ccncc2OCc2ccncn2)[nH]c2c1C(=O)NCC2 [Compound 478]
*A* < 100 nM

*Q* Which IC50 value is on record for C=CC(=O)N1[C@H](C)CC[C@H]1C#Cc1cnccc1-c1[nH]c2c(c1Nc1cccc(F)c1OC)C(=O)NCC2 [compound 257] ?
*A* < 100 nM

*Q* For COc1c(F)cccc1Nc1c(-c2ccncc2C#C[C@H]2CCCN2C(=O)/C=C/CN(C)C)[nH]c2c1C(=O)NCC2 [compound 303] , what is its reported IC50?
*A* 100 to 1000 nM

*Q* Which IC50 value is on record for COc1c(Cl)cccc1Nc1c(-c2ccncc2C#CC2(C(F)F)CC2)[nH]c2c1C(=O)NCC2 [compound 546] ?
*A* < 100 nM
